assay: A CellTox Green Cytotoxicity Assay to monitor cytotoxicity in HEK293 cells - 24 hour (AID 1224875); details: CellTox Green fluorescence; series mostly up to 76.8 µM; note: nearly all actives have a fitted effect of over 45% in size
Records with an inconclusive call do not appear. Calls of active or inactive are those of the source. Calls come from the whole dose curve; as a rule, active = well fitted activation curve with a large enough effect in the repeat runs; inconclusive = weak or mixed curves; inactive = flat fitted curve, though single readings scatter.
reported_property: outcome

molecule="O=C1C(=O)c2ccccc2C(O)=C1C1CCC(c2ccc(Cl)cc2)CC1 (stereo unspecified)" observed_result=inactive
molecule=C=C(C)C(=O)OCCCCCCCCCCCCC observed_result=inactive
molecule=CC(C)C[C@H](NC(=O)[C@H](CCc1ccccc1)NC(=O)CN1CCOCC1)C(=O)N[C@@H](Cc1ccccc1)C(=O)N[C@@H](CC(C)C)C(=O)[C@@]1(C)CO1 observed_result=inactive
molecule=CC(=O)OCCN(CCOC(C)=O)c1ccc(N=Nc2ccc([N+](=O)[O-])cc2C#N)cc1 observed_result=inactive
molecule="CCC(C)COC(C)=O (stereo unspecified)" observed_result=inactive
molecule="CC1(C)S[C@@H]2[C@H](NC(=O)C(c3ccccc3)S(=O)(=O)O)C(=O)N2[C@H]1C(=O)O (stereo partly specified)" observed_result=inactive

* * *

test: qHTS assay to identify small molecule antagonists of the sonic hedgehog signaling (Shh) pathway (AID 1259369); settings: NIH/3T3 Gli1-Luc reporter, Shh antagonist, luminescence 24 h; series mostly up to 92.4 µM; note: nearly all actives have a fitted effect of over 45% in size
Inconclusive results are not listed. Activity calls are given as the source filed them. Calls come from the whole dose curve.
Outcomes: 1 (yes) for active, 0 (no) for inactive

compound=CCC(C)(C)OC label="0 (no)"
compound=NCCNCCO label="0 (no)"
compound=CC(=O)c1ccc([N+](=O)[O-])cc1 label="0 (no)"
compound=CCn1cc(C(=O)O)c(=O)c2cc(F)c(N3CCNCC3)cc21 label="0 (no)"
compound=C(=C\c1ccccc1)/c1ccccc1 label="0 (no)"
compound=CC=C(Cl)Cl label="0 (no)"
compound=CC(=O)Nc1ccc(C)cc1C label="0 (no)"
compound=OC1(c2ccccc2)CCNCC1 label="0 (no)"
compound=NC(=O)c1ccncc1 label="0 (no)"
compound=COc1ccccc1Oc1c(NS(=O)(=O)c2ccc(C(C)(C)C)cc2)nc(-c2ncccn2)nc1OCCO label="1 (yes)"
compound=CC(=O)Nc1cc(S(=O)(=O)O)cc2cc(S(=O)(=O)O)c(N=Nc3ccccc3)c(O)c12 label="0 (no)"
compound=CCOC(=O)c1ccc(I)cc1 label="0 (no)"
compound=c1ccc2sc(SN(C3CCCCC3)C3CCCCC3)nc2c1 label="0 (no)"
compound=O=[N+]([O-])c1cc(C2CCCCC2)c(O)c([N+](=O)[O-])c1 label="1 (yes)"
compound=O=C(Cn1ccnc1[N+](=O)[O-])NCCO label="0 (no)"
compound=C[C@@H](O)[C@H]1C(=O)N2C(C(=O)O)=C([C@H]3CCCO3)S[C@H]12 label="0 (no)"
compound=CC(C)=CCC1C(=O)N(c2ccccc2)N(c2ccccc2)C1=O label="0 (no)"
compound="CC1(CN2CCC(n3c(=O)[nH]c4ccccc43)CC2)OCc2ccccc2-n2cccc21 (configuration not stated)" label="1 (yes)"
compound=O[C@@H]1CO[C@H]2[C@@H]1OC[C@@H]2O label="0 (no)"
compound=O=c1cc(-c2ccccc2)oc2ccc3ccccc3c12 label="1 (yes)"
compound=C=C(C)C(=O)OCCOCCOC(=O)C(=C)C label="0 (no)"
compound=CCCCCC[C@@H](O)C/C=C\CCCCCCCC(=O)O label="0 (no)"
compound=Oc1cccc(O)c1O label="1 (yes)"
compound="Cc1cc2c(OCC(CNC(C)(C)C)OC(=O)c3ccccc3)cccc2[nH]1 (configuration not stated)" label="1 (yes)"
compound=CCCCCCCCCI label="0 (no)"
compound=O=C(Nc1cccc2c(=O)cc(-c3nn[nH]n3)oc12)c1ccc(OCCCCc2ccccc2)cc1 label="0 (no)"
compound=CC1=C(CC=O)C(C)(C)CCC1 label="0 (no)"
